Cited source: patent US8927500B2

Below, each entry is listed alongside its reported pIC50.
- target-system: UniProt:O15151
- Sequence (O15151 1-125): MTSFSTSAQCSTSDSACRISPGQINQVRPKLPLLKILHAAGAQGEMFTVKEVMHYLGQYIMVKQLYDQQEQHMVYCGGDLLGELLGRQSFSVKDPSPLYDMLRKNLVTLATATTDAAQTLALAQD
- assay: Competitive fluorescence polarization assay for MDMX
- Format: binding
- experimental-parameters: competitive FP assay, read-out: IC50 (MDMX)
pIC50: −log10 of the molar value. Where a SMILES comes first, the peptide text is derived from it. Bridges are numbered along the chain shown (N, C = ends). [ ]: non-standard residue; d: D form. Phe(3,4-F2) = N[C@@H](Cc1ccc(F)c(F)c1)C(=O)O; R8 = C=CCCCCCC[C@@](C)(N)C(=O)O; Cba = N[C@@H](CC1CCC1)C(=O)O; hLeu = CC(C)CC[C@H](N)C(=O)O; S5 = C=CCCC[C@](C)(N)C(=O)O; Nle = CCCC[C@H](N)C(=O)O

{"compound": "CCCC[C@H](NC(=O)[C@H](Cc1c[nH]c2ccccc12)NC(=O)[C@H](C)NC(=O)[C@]1(C)CCCC=CCCCCCC[C@@](C)(NC(=O)[C@H](Cc2ccccc2)NC(=O)[C@@H](NC(=O)[C@H](CCC(=O)O)NC(C)=O)[C@@H](C)O)C(=O)N[C@@H](C)C(=O)N[C@@H](Cc2ccc(O)cc2)C(=O)N[C@@H](Cc2c[nH]c3ccccc23)C(=O)N[C@@H](C)C(=O)N[C@@H](CCC(N)=O)C(=O)N[C@@H](CC2CCC2)C(=O)N1)C(=O)N[C@H](C)C(N)=O [compound 270] (Ac-ETF[R8]AYWAQ[Cba][S5]AW[Nle][dA]-NH2; staple 4-11)", "pIC50": "7.00 to 8.00"}
{"compound": "CCCC[C@H](NC(=O)[C@H](C)NC(=O)[C@H](C)NC(=O)[C@]1(C)CCCC=CCCCCCC[C@@](C)(NC(=O)[C@H](Cc2ccccc2)NC(=O)[C@@H](NC(=O)[C@H](CC(C)C)NC(C)=O)[C@@H](C)O)C(=O)N[C@@H](CCC(=O)O)C(=O)N[C@@H](Cc2ccc(O)cc2)C(=O)N[C@@H](Cc2c[nH]c3ccccc23)C(=O)N[C@@H](C)C(=O)N[C@@H](CCC(N)=O)C(=O)N[C@@H](CCC(C)C)C(=O)N1)C(=O)N[C@@H](C)C(N)=O [compound 318] (Ac-LTF[R8]EYWAQ[hLeu][S5]AA[Nle]A-NH2; staple 4-11)", "pIC50": "6.00 to 7.00"}

Query: What value of measured pIC50 is listed for CC(=O)N[C@@H](CC(C)C)C(=O)N[C@H](C(=O)N[C@@H](Cc1ccccc1)C(=O)N[C@]1(C)CCCCCCC=CCCC[C@@](C)(C(=O)N[C@@H](CO)C(=O)N[C@@H](C)C(=O)N[C@@H](Cc2ccccc2)C(N)=O)NC(=O)[C@H](CC2CCC2)NC(=O)[C@H](CCC(N)=O)NC(=O)[C@H](C)NC(=O)[C@H](Cc2c[nH]c3ccccc23)NC(=O)[C@H](Cc2ccc(O)cc2)NC(=O)[C@H](C)NC1=O)[C@@H](C)O [compound 258] (Ac-LTF[R8]AYWAQ[Cba][S5]SAF-NH2; staple 4-11) ?
Response: 6.00 to 7.00

Query: What value of measured pIC50 is listed for CC(=O)N[C@@H](CC(C)C)C(=O)N[C@H](C(=O)N[C@@H](Cc1ccc(F)c(F)c1)C(=O)N[C@]1(C)CCCCCCC=CCCC[C@@](C)(C(=O)N[C@@H](CO)C(=O)N[C@@H](C)C(=O)N[C@@H](Cc2ccccc2)C(N)=O)NC(=O)[C@H](CC2CCC2)NC(=O)[C@H](CCC(N)=O)NC(=O)[C@H](C)NC(=O)[C@H](Cc2c[nH]c3ccccc23)NC(=O)[C@H](Cc2ccc(O)cc2)NC(=O)[C@H](C)NC1=O)[C@@H](C)O [compound 259] (Ac-LT[Phe(3,4-F2)][R8]AYWAQ[Cba][S5]SAF-NH2; staple 4-11) ?
Response: 7.00 to 8.00

Query: What value of measured pIC50 is listed for CC(=O)N[C@@H](CC(C)C)C(=O)N[C@H](C(=O)N[C@@H](Cc1ccccc1)C(=O)N[C@]1(C)CCCCCCC=CCCC[C@@](C)(C(=O)N[C@@H](CCCNC(=N)N)C(=O)N[C@@H](C)C(=O)N[C@@H](C)C(N)=O)NC(=O)[C@H](CC2CCC2)NC(=O)[C@H](CCC(N)=O)NC(=O)[C@H](C)NC(=O)[C@H](Cc2c[nH]c3ccccc23)NC(=O)[C@H](Cc2ccc(O)cc2)NC(=O)[C@H](CCC(=O)O)NC1=O)[C@@H](C)O [compound 364] (Ac-LTF[R8]EYWAQ[Cba][S5]RAA-NH2; staple 4-11) ?
Response: 7.00 to 8.00

Query: What value of measured pIC50 is listed for CC(=O)N[C@@H](CC(C)C)C(=O)N[C@H](C(=O)N[C@@H](Cc1ccccc1)C(=O)N[C@]1(C)CCCCCCC=CCCC[C@@](C)(C(=O)N[C@@H](CO)C(=O)N[C@@H](CO)C(=O)N[C@H](C)C(N)=O)NC(=O)[C@H](CC(C)C)NC(=O)[C@H](CCC(N)=O)NC(=O)[C@H](C)NC(=O)[C@H](Cc2c[nH]c3ccccc23)NC(=O)[C@H](Cc2ccc(O)cc2)NC(=O)[C@H](C(C)C)NC1=O)[C@@H](C)O [compound 133] (Ac-LTF[R8]VYWAQL[S5]SS[dA]-NH2; staple 4-11) ?
Response: 6.00 to 7.00

Query: What value of measured pIC50 is listed for CC(=O)N[C@@H](CC(C)C)C(=O)N[C@H](C(=O)N[C@@H](Cc1ccccc1)C(=O)N[C@]1(C)CCCCCCC=CCCC[C@@](C)(C(=O)N[C@@H](C)C(=O)N[C@@H](C)C(=O)N[C@@H](C)C(=O)N[C@H](C)C(N)=O)NC(=O)[C@H](CC(C)C)NC(=O)[C@H](CCC(N)=O)NC(=O)[C@H](C)NC(=O)[C@H](Cc2c[nH]c3ccccc23)NC(=O)[C@H](Cc2ccc(O)cc2)NC(=O)[C@H](C)NC1=O)[C@@H](C)O (single isomer, unassigned) [compound 230] ?
Response: 7.00 to 8.00

Query: What value of measured pIC50 is listed for CC(=O)N[C@@H](CC(C)C)C(=O)N[C@H](C(=O)N[C@@H](Cc1ccccc1)C(=O)N[C@]1(C)CCCCCCC=CCCC[C@@](C)(C(=O)N[C@@H](C)C(=O)N[C@@H](C)C(=O)N[C@@H](C)C(=O)N[C@@H](C)C(=O)N[C@H](C)C(N)=O)NC(=O)[C@H](CCC(C)C)NC(=O)[C@H](CCC(N)=O)NC(=O)[C@H](C)NC(=O)[C@H](Cc2c[nH]c3ccccc23)NC(=O)[C@H](Cc2ccc(O)cc2)NC(=O)[C@H](C)NC1=O)[C@@H](C)O (single isomer, unassigned) [compound 313] ?
Response: 6.00 to 7.00
